# Assay protocol: in vitro
# Measurement conditions: human, hela cells, % viability
Quantity: viability at 28.5 h, 10 µM (%)
Could you give me the number in %? Just the number is fine.

# count of solved cases: 10
In [3]: df
Out[3]:
                                   compound                    quantity  test_value
0  Cc1noc(C)c1CC(=O)NC(CN1CCCCC1)c1ccccc1 (stereo not shown)  viability at 28.5 h, 10 µM        89.1
1  O=C(NC(Cc1cccs1)c1nccs1)c1ccncc1 (stereo not shown)  viability at 28.5 h, 10 µM        93.9
2  Nc1nc2c(ncn2[C@H]2C[C@@H](O)[C@@H](CO)O2)c(=O)[nH]1  viability at 28.5 h, 10 µM        98.1
3  O=C(/C=C/c1ccco1)NC(=S)Nc1ccccc1[N+](=O)[O-]  viability at 28.5 h, 10 µM         117
4  O=C1c2ccc(OCCOc3ccc4c(c3)C(=O)N(c3ccc(O)cc3)C4=O)cc2C(=O)N1c1ccc(O)cc1  viability at 28.5 h, 10 µM        91.3
5  O=C(O)CCc1ccc(-c2cn3ccnc3c(Nc3ccc(Br)cc3)n2)cc1  viability at 28.5 h, 10 µM         113
6       CC(=O)Nc1ccccc1OCc1cc(-c2ccccc2)on1  viability at 28.5 h, 10 µM        99.8
7  CSc1nnc(CC2CCN(C(=O)c3cc(C)c(C)cc3C)CC2)n1C  viability at 28.5 h, 10 µM          99
8  CCc1ccc(Oc2cc(N3CCC(C(=O)NC4CC4)CC3)ncn2)cc1  viability at 28.5 h, 10 µM         102
9  CC(=O)Nc1ccc(S(=O)(=O)N2CCN(c3ccc([N+](=O)[O-])c(NC4CC4)c3)CC2)cc1  viability at 28.5 h, 10 µM        97.3

viability at 28.5 h, 10 µM reported for this compound Cc1ccc(-c2ccc(/C=N\NC(=O)C3C(=O)NCC3c3ccccc3)o2)cc1Cl (stereo not shown) : 98.7

viability at 28.5 h, 10 µM reported for this compound "N#Cc1cccc(Nc2cncc(-c3cccc(C(=O)NCCO)c3)n2)c1" : 97.1

viability at 28.5 h, 10 µM reported for this compound "O=S(=O)(Nc1cccc2ncccc12)c1ccc(OC(F)(F)F)cc1" : 112

viability at 28.5 h, 10 µM reported for this compound S=C(Nc1ccccc1)NC1C2CN3CCN(C2)CC1(c1ccccc1)C3 (stereo not shown) : 88.6

viability at 28.5 h, 10 µM reported for this compound "CC(C)Cn1c(=O)[nH]c2ncc(-c3cccc4ccccc34)nc21" : 107

viability at 28.5 h, 10 µM reported for this compound "Cc1oc(C(C)(C)C)cc1C(=O)NCCNc1c(Cl)cccc1[N+](=O)[O-]" : 119

viability at 28.5 h, 10 µM reported for this compound "CCN(CC(=O)N1CCN(C)CC1)S(=O)(=O)c1ccc(OC)cc1" : 89.2

viability at 28.5 h, 10 µM reported for this compound "COc1cc(CN2CCN(c3cc(C)ccc3C)CC2)ccc1OCc1ccccc1" : 86.6

viability at 28.5 h, 10 µM reported for this compound "COC(=O)c1ccccc1OCCc1csc(NS(=O)(=O)c2cccc(Cl)c2C)n1" : 116

viability at 28.5 h, 10 µM reported for this compound CCN1C(=O)CC2(C1=O)C(=O)N(CCCOc1ccc(Cl)cc1)c1ccc(C)cc12 (stereo not shown) : 109

viability at 28.5 h, 10 µM reported for this compound CN(CC1CCCN(C(=O)Nc2cccc(Cl)c2)C1)C(=O)OC(C)(C)C (stereo not shown) : 94.2

viability at 28.5 h, 10 µM reported for this compound "CCNC(=O)Nc1cc2cccnc2nc1-c1cc(F)cc(F)c1" : 97

viability at 28.5 h, 10 µM reported for this compound Cn1cc(C(=O)NC(Cc2ccsc2)c2nccs2)ccc1=O (stereo not shown) : 98.5

viability at 28.5 h, 10 µM reported for this compound "CCN(CC)CCn1c(-c2ccccc2)c(OCCO)c2ccccc2c1=O" : 96.9

viability at 28.5 h, 10 µM reported for this compound "COc1ccc(OCCC(=O)O)cc1" : 86.2

viability at 28.5 h, 10 µM reported for this compound CCCN(C(C)C(=O)N(C)C)S(=O)(=O)c1ccc(Cl)cc1 (stereo not shown) : 96.8

viability at 28.5 h, 10 µM reported for this compound "O=C(CC1(C(F)(F)F)NCCN1)c1cccc([N+](=O)[O-])c1" : 83.1

viability at 28.5 h, 10 µM reported for this compound "COc1ccc(Sc2cccc(C(F)(F)F)n2)cc1OC" : 94

viability at 28.5 h, 10 µM reported for this compound "COc1ccc(NS(=O)(=O)c2ccc3c(c2)N(CC(=O)O)C(=O)CO3)cc1NS(C)(=O)=O" : 90.1
